Where do the numbers come from? From PubChem BioAssay (NCI).

The entries below are paired with their reported growth.
- System: MOLT-4 leukemia
- Assay text: NCI-60 one-dose screen, 48 h (100 = growth as untreated, 0 = no growth, -100 = all killed)
- Conditions used: 10 µM unless noted
Compounds without any hit were thinned out: in the full panel of roughly 83,000, 20% have a hit.
Your answer should be a plain number; it is taken to be in %.

Here is how some molecules turned out for growth.
COC1=CC(c2ccc[nH]2)=N/C1=C\c1[nH]c(C)c(C(=O)CCCCC(=O)Oc2ccc3c(c2)CCC2C3CC[C@]3(C)[C@@H](O)CC[C@@H]23)c1C (stereo not given in full) :: 22.8
Nc1c(C(=O)Nc2cccc(C(F)(F)F)c2)sc2nc3c(cc12)C(O)CCC3 (stereo not given) :: 24.7
Cc1nn(-c2ccc(Cl)cc2)c(=O)n1CCOc1ccccc1Cl :: 97.2
COc1ccc(C2CC(c3cccs3)=NN2c2ccc(S(=O)(=O)NC(=O)Nc3ccc(C)cc3)cc2)cc1 (stereo not given) :: 94.4

Task: Requested read-out: growth. Entry: `COc1ccc2c(c1)NC(=O)CN2c1nc(C)nc2ccccc12`
Result: 23.7

* * *

Parameter growth: see the listing below.
- Tested on: A498 renal
- Assay text: NCI-60 one-dose screen, 48 h (100 = growth as untreated, 0 = no growth, -100 = all killed)
- Conditions used: 10 µM unless noted
The panel holds about 83,000 compounds, 20% with a hit somewhere; the sample as a whole holds those more often.
Provide only the numeric value, understood in %.

Some solved cases for reference:
N#Cc1c(NC(=O)c2ccc([N+](=O)[O-])o2)[n+]([O-])c2cc(F)c(F)cc2[n+]1[O-] :: 151
COc1cc(CNC(=O)CCSc2nc3ccccc3c(=O)n2Cc2cc(OC)c(OC)c(OC)c2)cc(OC)c1OC :: 21.7
O=C1Nc2cc(Cl)ccc2Oc2cc(Oc3ccccc3)ccc21 :: 67.1
CCN(Cc1ccccc1)c1ccc(SC#N)cc1 :: 86.9
CCC(c1ccc(OC)cc1)C(CC)c1ccc(O)c(CN2CCCC2)c1 (stereo not given) :: -5.74
COc1ccc(/C=C2\CCCC3=C2NC(C)=NC3c2ccc(OC)c(OC)c2)cc1OC (stereo not given) :: 5.88
COc1cc(Cn2c(SCC(=O)Nc3ccc(Cl)cc3)nc3ccccc3c2=O)cc(OC)c1OC :: 41.4
C[N+](C)(C)c1ccc(CC2c3ccccc3-c3ccccc32)cc1 :: 70.5

Task: Look up growth: `O=P([O-])(O)OP(=O)([O-])O.[NH-][C@H]1CCCC[C@@H]1[NH-].[OH-].[OH-].[Pt+4]`
Result: 81.7

Task: I'd like to know its growth. The compound in question is `CCC#CC[C@H]1C/C=C2/C(=O)C=C[C@@H]2C/C=C\CCCC(=O)O1`
Result: 46.5

Task: Recorded growth of `Nc1c(C(=O)Nc2ccccc2)sc2nc3c(cc12)CCCCC3` , please.
Result: -5.02

Task: So what does the record say about growth for `CCCCCC/C=C\CCCCCCCCOc1ccc(CCOP(=O)(O)OCC[N+](C)(C)C)cc1` ?
Result: 95.6

Task: Data request, read-out growth, for `O=C(Nc1ccc(OCc2nnc(-c3ccc(Cl)cc3)o2)c(F)c1)Nc1ccc(Cl)c(Cl)c1`
Result: 67.9

Task: Give its growth value. Item: `CCCCCc1c(C)[nH]c(/C=c2\[nH]/c(=C3/C=c4ccccc4=N3)cc2OC)c1C`
Result: -29.4
